System: SEM cells
Protocol Text: cell viability relative to DMSO control; higher = less cytotoxic
Condition Summary: HPLM + 10% dialyzed FBS; 48 h; 0.0632 µM
cell viability listing for selected compounds.

- Compound: "Nc1nc(-c2nn(Cc3ccccc3F)c3ncccc23)nc(N)c1N1CCOCC1"
  cell viability / %: 101
- Compound: "O=C(O)c1ccccc1C(=O)Nc1ccc(-c2ccccc2)cc1"
  cell viability / %: 119
- Compound: "Cc1c(C(=O)Nc2ccc(N3C[C@@H](C)O[C@@H](C)C3)nc2)cccc1-c1ccc(OC(F)(F)F)cc1"
  cell viability / %: 131
- Compound: "COc1cc(N2CCC(O)CC2)ccc1Nc1cc(Nc2ccccc2[S+](=O)([O-])C(C)C)c2cc[nH]c2n1"
  cell viability / %: 81.4
- Compound: "COCCOC(=O)C/1=C(C)/NC/2=C(C1C3=CC=CC(=C3)O)/C(=O)CC(C2)C4=C(OC)C=CC=C4 (configuration not stated)"
  cell viability / %: 98.2
- Compound: "COc1ccc(/C=C\\c2cc(OC)c(OC)c(OC)c2)cc1O"
  cell viability / %: 19.5
- Compound: "CCC1=C[C@@H]2CN(C1)Cc1c([nH]c3ccccc13)[C@@](C(=O)OC)(c1cc3c(cc1OC)N(C)[C@H]1[C@@](O)(C(=O)OC)[C@H](OC(C)=O)[C@]4(CC)C=CCN5CC[C@]31[C@@H]54)C2"
  cell viability / %: 75.9

* * *

cell viability listing for selected compounds.
Tested on: SEM cells
Protocol Text: cell viability relative to DMSO control; higher = less cytotoxic
Condition Summary: RPMI 5 mM glucose + 10% dialyzed FBS; 48 h; 0.00234 µM
Measured Property: cell viability (%)

- Smiles Notation: "CC(C)(C)/[N+]([O-])=C/c1ccc([S+](=O)([O-])[O][Na])cc1[S+](=O)([O-])[O][Na]"
  Measurement: 105
- Smiles Notation: "Cc1cc2c(C(C)C)c(O)c(O)c(C=O)c2c(O)c1-c1c(C)cc2c(C(C)C)c(O)c(O)c(C=O)c2c1O"
  Measurement: 123
- Smiles Notation: "CN1C(=O)\\C(=C/C(=C1/NC2=C(F)C=C(I)C=C2)C(=O)NOCCO)C"
  Measurement: 91.8
- Smiles Notation: "COC(=O)N1CCN(Cc2cccc(NC(=O)Nc3ccc(C)nc3)c2F)CC1"
  Measurement: 107
- Smiles Notation: "C[C@@H]1CC[C@@]2(OC1)O[C@H]3C[C@H]4[C@@H]5C/C=C6/C[C@H](CC[C@]6(C)[C@H]5CC[C@]4(C)[C@H]3[C@@H]2C)O[C@@H]7O[C@H](CO)[C@@H](O[C@@H]8O[C@@H](C)[C@H](O)[C@@H](O)[C@H]8O)[C@H](O)[C@H]7O[C@@H]9O[C@@H](C)[C@H](O)[C@@H](O)[C@H]9O"
  Measurement: 116
- Smiles Notation: "CNC(=O)[C@H](Cc1ccccc1)NC(=O)[C@H](CC(C)C)[C@H](CSc1cccs1)C(=O)NO"
  Measurement: 69.4

* * *

Tested on: NOMO1
Protocol Text: cell viability relative to DMSO control; higher = less cytotoxic
Condition Summary: RPMI 5 mM glucose + 10% dialyzed FBS; 48 h; 5.12 µM
Measured Property: cell viability (%)

- Molecule: "CCOC(=O)C/1=C(C)/NC(=S)NC1C2=CC=CC(=C2)O (stereo not drawn)"
  Measurement: 22.9
- Molecule: "Cl.c1cnc2cc3c(cc2n1)C1CNCC3C1"
  Measurement: 103
- Molecule: "O=C(O)[C@H](Cc1c[nH]c2ccccc12)N1C(=O)c2ccccc2C1=O"
  Measurement: 103
- Molecule: "CCCCCCCCCCCC(CC1OC(=O)C1CCCCCC)OC(=O)C(CC(C)C)NC=O (stereo not drawn)"
  Measurement: 96.4
- Molecule: "Nc1ccccc1NC(=O)c1ccc(CNc2nccc(-c3cccnc3)n2)cc1"
  Measurement: 24.2
- Molecule: "COc1cc2nccc(Oc3ccc(NC(=O)C4(C(=O)Nc5ccc(F)cc5)CC4)cc3)c2cc1OC"
  Measurement: 95.5
- Molecule: "COC[C@H](NC(=O)c1cnc(C)s1)C(=O)N[C@@H](COC)C(=O)N[C@@H](Cc1ccccc1)C(=O)[C@@]1(C)CO1"
  Measurement: 2.49
- Molecule: "O=C1c2c(O)cccc2[C@H]([C@@H]2O[C@H](CO)[C@@H](O)[C@H](O)[C@H]2O)c2cc(CO)cc(O)c21"
  Measurement: 89
- Molecule: "O=C/1\\C=C(/OC(=C1)/C2=C3SC4=C(SC3=CC=C2)C=CC=C4)N5CCOCC5"
  Measurement: 83.7
- Molecule: "C1Cc2[nH]nc(-c3nn[nH]n3)c2C1"
  Measurement: 131
- Molecule: "Cc1cc(O)c2c3c4c(cc(O)c13)C(C)(C)C(=O)c1c(O)cc(O)c(c1-4)C2=O"
  Measurement: 112
- Molecule: "ClC1=CC=C(CCCOC/2=N/NC(=O)C(=C2NCC3=CN=CC=C3)/Br)C=C1"
  Measurement: 66.2
- Molecule: "COc1cc(N2CCC(O)CC2)ccc1Nc1cc(Nc2ccccc2[S+](=O)([O-])C(C)C)c2cc[nH]c2n1"
  Measurement: 87.5
- Molecule: "Cc1nc(Nc2ncc(C(=O)Nc3c(C)cccc3Cl)s2)cc(N2CCN(CCO)CC2)n1"
  Measurement: 81
- Molecule: "Clc1ccc(C2(c3ccc(-c4cn[nH]c4)cc3)CCNCC2)cc1"
  Measurement: 70.3
- Molecule: "O=C1NC(=O)[C@@H](c2cn3c4c(cccc24)CCC3)[C@@H]1c1c[nH]c2ccccc12"
  Measurement: 22.4
- Molecule: "CO[C@H]1C[C@@H]2CC[C@@H](C)[C@@](O)(O2)C(=O)C(=O)N2CCCC[C@H]2C(=O)O[C@H]([C@H](C)C[C@@H]2CC[C@@H](OP(C)(C)=O)[C@H](OC)C2)CC(=O)[C@H](C)/C=C(\\C)[C@@H](O)[C@@H](OC)C(=O)[C@H](C)C[C@H](C)/C=C/C=C/C=C/1C"
  Measurement: 124
- Molecule: "FC(F)(F)c1ccc(Nc2nc3cc(Oc4ccnc(-c5ncc(C(F)(F)F)[nH]5)c4)ccc3[nH]2)cc1"
  Measurement: 130
